Source: PubChem BioAssay AID1159580

- method-description: chemical genetic growth profiling, strain panel (AID 1159580);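 further: tested at 20 µM; growth read once vehicle control cultures reached saturation at 30 °C; 1 = growth at the plate median or of vehicle wells; lower values mean less growth of the strain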
- applied-conditions: S. cerevisiae deletion strains, growth OD, locus YKL085W, strain MDH1, active compounds read low
Screen size: about 5,500 compounds; about 2,000 (36%) were called active. Roughly 18% stayed inconclusive and do not appear here. Some of the results follow.
measurement-kind: normalized growth
A bare number is all that is needed in reply.

The examples below pair each entry with its known result.
>>> df
                                   molecule  observed
0  COc1ccc(OC)c(C(O)C(C)N)c1 (stereo unspecified)         1
1  CC(C(=O)O)c1cccc(C(=O)c2ccccc2)c1 (stereo unspecified)     0.968
2  O=C(O)C1(O)C[C@@H](O)C(O)[C@H](O)C1 (stereo partly specified)      1.01
3  COc1cc2c(cc1OC)[C@@H]1C(=O)c3ccc4oc(C(C)C)cc4c3O[C@@H]1CO2     0.989
4              COc1ccc2cc([C@H](C)CO)ccc2c1     0.949

Then this molecule:
Ask | Tell me the measured normalized growth of COc1cc2c(cc1OC)C1C(=O)c3c(cc4c(c3O)C=CC(C)(C)O4)OC1CO2 (stereo unspecified) , please.
Reply | 1.01

----------
Overview of reported normalized growth across a group of compounds:
- method-description: chemical genetic growth profiling, strain panel (AID 1159580);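 further: tested at 20 µM; growth read once vehicle control cultures reached saturation at 30 °C; 1 = growth at the plate median or of vehicle wells; lower values mean less growth of the strain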
- applied-conditions: S. cerevisiae deletion strains, growth OD, locus YJR043C, strain POL32, active compounds read low
The campaign covered roughly 5,500 compounds. About 2,000 (36%) were called active. Another 18% or so got no clear call; they are omitted. Some of the results follow.
A bare number is all that is needed in reply.

                                   compound  observed
0     CC(N)CCCC(C)(C)O (stereo unspecified)     0.989
1       CN(C)CC/C=C1\c2ccccc2Sc2ccc(Cl)cc21      1.03
2  CC(C)CC(NC(=O)C(Cc1ccccc1)NC(=O)CNC(=O)CNC(=O)C(N)Cc1ccc(O)cc1)C(=O)O (stereo unspecified)     0.976
3     OCC(O)C(O)C(O)CO (stereo unspecified)      1.05
4  COCCc1ccc(OCC(O)CNC(C)C)cc1 (stereo unspecified)      1.01

Then this compound:
Ask | Tell me the measured normalized growth of CC1=C(CC(=O)O)c2cc(F)ccc2/C1=C\c1ccc(S(C)=O)cc1 (stereo unspecified) , please.
Reply | 1

----------
Overview of reported normalized growth across a group of molecules:
- method-description: chemical genetic growth profiling, strain panel (AID 1159580);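 further: tested at 20 µM; growth read once vehicle control cultures reached saturation at 30 °C; 1 = growth at the plate median or of vehicle wells; lower values mean less growth of the strain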
- applied-conditions: S. cerevisiae deletion strains, growth OD, locus YJL166W, strain qcr8, active compounds read low
Screen size: about 5,500 compounds; about 2,000 (36%) were called active. Another 18% or so got no clear call; they are omitted. This is one part of the list.

The examples below pair each entry with its known result.
molecule	measurement-kind	observed
CCOC(=O)C(Cc1ccc(O)cc1)NC(C)=O (stereo not drawn)	normalized growth	0.995 (inactive)
CCOC(=O)CCC(=O)O[C@H]1[C@H](O[C@@H]2[C@@H](C)[C@H](O[C@H]3C[C@@](C)(OC)[C@@H](O)[C@H](C)O3)[C@@H](C)C(=O)O[C@H](CC)[C@@](C)(O)[C@H](O)[C@@H](C)C(=O)[C@H](C)C[C@@]2(C)O)O[C@H](C)C[C@@H]1N(C)C	normalized growth	0.993 (inactive)

Ask | Tell me the measured normalized growth of CC(C)c1c(C(=O)c2ccccc2)c(-c2ccccc2)c(-c2ccc(F)cc2)n1CC[C@@H](O)C[C@@H](O)CC(=O)O , please.
Reply | 0.926 (inactive)
